# reported TGI; entries follow
Tested on: U251 CNS
test_summary: NCI tumour cell line growth inhibition, 48 h
recorded_metric: TGI

# chemical_smiles, observed
records = [
    ("C[C@]1(O)CC(=O)[C@]2(O)C3=C(C=C[C@]2(O)C1)C(=O)c1c(O)cccc1C3=O", "21.5 µM"),
    ("COc1ccc(-c2c(N)n(-c3cc(OC)cc(OC)c3)c(=O)c3cc([N+](=O)[O-])ccc23)cc1", "> 100 µM"),
    ("c1csc(-c2cc(-c3ccsc3)c(-c3cccs3)s2)c1", "> 100 µM"),
    ("COc1cccc(N2CCc3c(C)c(C#N)c4nc5ccccc5n4c32)c1", "> 100 µM"),
]

----------
# reported TGI; entries follow
System: KM12 colon
test_summary: NCI tumour cell line growth inhibition, 48 h

# molecule, TGI
records = [
    ("CN1C(=O)NC2(O)c3ccccc3C(=O)C12O (configuration not stated)", "> 100 µM"),
    ("CCOC(=O)C1C(=O)CC(C)(O)C(C(=O)OCC)C1c1ccc(O)c(OC)c1 (configuration not stated)", "> 100 µM"),
    ("CCN(CC)CCNc1ccc(CO)c2sc3ccccc3c(=O)c12", "26 µM [middle of 4 runs]"),
    ("Cc1c(Cl)c(S(N)(=O)=O)cc(S(N)(=O)=O)c1NC(=O)c1ccc(Cl)cc1", "> 100 µM"),
    ("COc1cc([C@@H]2c3cc4c(cc3[C@@H](NC(=O)c3ccc(C(C)=O)cc3)C3COC(=O)[C@@H]32)OCO4)cc(OC)c1O (some centres not stated)", "5.68 µM"),
    ("COC(=O)c1cc(Cl)ccc1NC(=O)C1CCCCC1", "> 100 µM"),
    ("C/C(=C\\c1ccccc1)C(O)S(=O)(=O)O (configuration not stated)", "> 100 µM"),
    ("Cc1cc(Cl)ccc1N1C(=O)C(=O)C(c2nc3ccccc3s2)/C(=N\\NC(=O)c2ccccc2O)C1=O (configuration not stated)", "> 100 µM"),
    ("O=C(C1=CCC2(CC1)OCCO2)N(Cc1ccccc1)c1ccccc1I", "29.5 µM"),
    ("CCCN(CCC)c1ccc(C=O)c(OC)c1", "83.8 µM"),
    ("CCOC(=O)c1c(SCC#N)n(-c2ccccc2)c(=S)n(-c2ccccc2)c1=O", "> 100 µM"),
    ("Cc1ccccc1N=Nc1ccc(N=Nc2c(O)ccc3cc(S(=O)(=O)O)cc(S(=O)(=O)O)c23)c(C)c1", "> 100 µM"),
    ("N#CC(C(=N/NC(N)=S)/C(=N\\NC(N)=S)C(C#N)c1ccccc1)c1ccccc1 (configuration not stated)", "> 10 µM"),
    ("N#C/C(=C\\N1CCNC1=S)C(=O)c1ccc2ccccc2c1", "> 100 µM"),
    ("Nc1nonc1-c1noc(-c2nonc2N)[n+]1[O-]", "> 100 µM"),
    ("C1CSCCSS[C@@H]2CCCCC2SC1 (some centres not stated)", "> 100 µM"),
    ("COc1ccc(-n2c(C)nc3ccc(N=Cc4ccccc4)cc3c2=O)cc1", "> 100 µM"),
]

----------
Test system: SW-620 colon
test_summary: NCI tumour cell line growth inhibition, 48 h
# reported TGI; entries follow
recorded_metric: TGI

# molecule, target_system, observed
data = [
    ("COC(=O)c1ccc(/C=N/c2cc(C)nn2-c2ccccc2)cc1", "SW-620 colon", "> 100 µM"),
    ("COc1ccc(C(=O)N=C2N(c3ccccc3)C(=Nc3ccccc3)C(=Nc3ccccc3)N2c2ccccc2)cc1", "SW-620 colon", "> 100 µM"),
    ("CN1CCN(c2ccc(NC3=C(Cl)C(=O)c4ncccc4C3=O)cc2C(F)(F)F)CC1", "SW-620 colon", "3.37 µM"),
    ("COC(=O)c1c(C)cccc1C1CN=NC12Cc1c(C)cccc1C2=O (stereo not drawn)", "SW-620 colon", "> 100 µM"),
    ("CC(=O)N1C(=O)C(=O)c2cc(Cl)ccc21", "SW-620 colon", "> 100 µM"),
    ("CCCCNC(=O)C1=C(C)NC(C)=C(C(=O)NCCCC)C1", "SW-620 colon", "> 100 µM"),
    ("O=C1CC(CC(O)C(O)CO)CC(=O)N1 (stereo not drawn)", "SW-620 colon", "> 100 µM"),
    ("N=C(N)SC1c2ccccc2-c2cc([N+](=O)[O-])ccc21 (stereo not drawn)", "SW-620 colon", "22.1 µM"),
    ("CC(C)[C@H](COC(C)(C)C)N=CN1CSc2ccccc21", "SW-620 colon", "> 100 µM"),
    ("[O-]c1c(-c2ccccc2)[se]c(-c2ccccc2)[n+]1-c1ccccc1", "SW-620 colon", "34.2 µM"),
    ("COc1cccc(N2CCc3c(C)c(C#N)c4nc5ccccc5n4c32)c1", "SW-620 colon", "> 100 µM"),
    ("CCOc1ccc2c(-c3ccnc(Nc4cccc(C(F)(F)F)c4)n3)cnn2n1", "SW-620 colon", "> 25 µM"),
    ("C/C(=N\\O)C(CN(C)C)C(c1ccccc1)c1c(O)c2ccccc2oc1=O (stereo not drawn)", "SW-620 colon", "> 100 µM"),
]

----------
Test system: SK-MEL-2 melanoma
test_summary: NCI tumour cell line growth inhibition, 48 h; in the data active means GI50 below about 0.43 µM; inactive means the rest
Possible outcomes: active, inactive

# compound, group
data = [
    ("CCc1nc2cc(/C=C/C(=O)NO)c(F)cc2c(=O)n1CCc1ccccc1", "inactive"),
    ("CC(=O)[CH-]C(=O)c1ccccc1.CC(=O)[CH-]C(=O)c1ccccc1.CC(C)CCCC(C)[C@H]1CCC2[C@@H]3CCC4C[C@@H]([O-])CC[C@]4(C)C3CC[C@@]21C.CC(C)CCCC(C)[C@H]1CCC2[C@@H]3CCC4C[C@@H]([O-])CC[C@]4(C)C3CC[C@@]21C.Cl.[Ti+4] (stereo partly drawn)", "inactive"),
    ("CCCCCCCCCCCCCCCC[N+](C)(C)C", "active"),
]

----------
System: SK-MEL-2 melanoma
test_summary: NCI tumour cell line growth inhibition, 48 h
# reported GI50; entries follow
recorded_metric: GI50

# chemical_smiles, observed
records = [
    ("O=c1c2ccccc2c(C=NCCNCCO)c2oc3ccccc3n12", "21.3 µM"),
    ("COc1ccc(S(=O)(=O)N2CCCCC2)cc1NC(=O)c1[nH]c(C)c2c1CCCCC2=O", "2.4 µM"),
    ("CCN(CCc1ccc(F)cc1)c1ccc(CO)c(Cl)c1", "7.29 µM"),
]

----------
Test system: A549 NSCLC
test_summary: NCI tumour cell line growth inhibition, 48 h
recorded_metric: TGI

# compound, observed
rows = [
    ("O=C(CN1C(=O)c2ccccc2C1=O)OC1C=CCCC1 (centres undefined)", "> 100 µM"),
    ("Cc1ccc(-c2n[nH]c(=O)n2N)cc1", "> 100 µM"),
    ("CC(C)[C@H](COC(C)(C)C)N=CN1CSc2ccccc21", "> 100 µM"),
    ("N#CC(C(=N/NC(N)=S)/C(=N\\NC(N)=S)C(C#N)c1ccccc1)c1ccccc1 (centres undefined)", "> 10 µM"),
    ("Cc1ccc(NCCN(C)CC(C)O)c2c(=O)c3ccc(Cl)cc3sc12 (centres undefined)", "> 100 µM"),
    ("O=S(=O)(O)c1cc(O)c2c(O)c(N=Nc3ccc(/C=C/c4ccc(N=Nc5c(S(=O)(=O)O)cc6cc(S(=O)(=O)O)cc(O)c6c5O)cc4S(=O)(=O)O)c(S(=O)(=O)O)c3)c(S(=O)(=O)O)cc2c1", "> 100 µM"),
    ("CC(=O)OCC1OC(Sc2nc(-c3ccc(C)cc3)c(C#N)c(=O)n2C2OC(COC(C)=O)C(OC(C)=O)C(OC(C)=O)C2OC(C)=O)C(OC(C)=O)C(OC(C)=O)C1OC(C)=O (centres undefined)", "> 100 µM"),
    ("Nc1nc(SCCC/C=C/B(O)O)nc2c1ncn2C1OC(CO)C(O)C1O (centres undefined)", "> 243 µM"),
    ("N=c1nc(N)nc(N)n1-c1ccc(S(N)(=O)=O)cc1", "> 100 µM"),
]

----------
# reported TGI; entries follow
System: HOP-62 NSCLC
test_summary: NCI tumour cell line growth inhibition, 48 h

# chemical_smiles, TGI
rows = [
    ("CC(C)C(OC(=O)c1cc(NC(=S)c2ccccc2)ccc1Cl)C(C)C", "> 100 µM"),
    ("C[n+]1ccccc1/C=C/c1ccc2c(c1)OCO2", "> 10 µM"),
    ("Cn1cc(C=C(C#N)C#N)c(=O)n(C)c1=O", "> 100 µM"),
]

----------
# reported GI50; entries follow
System: SNB-75 CNS
test_summary: NCI tumour cell line growth inhibition, 48 h

# molecule, GI50
measured = [
    ("Cc1ccc2nc(NC(=O)CSC(=S)N3CCN(Cc4ccccc4)CC3)sc2c1", "> 100 µM"),
    ("CC(C)(C)c1ccc(NC(=O)c2cc(=O)c3ccccc3[nH]2)c(C(C)(C)C)c1O", "7.4 µM"),
    ("N#C/C(=C/c1cccs1)c1cccs1", "> 100 µM"),
    ("CC(C)NCCCNC1=C(Cl)C(=O)c2ccccc2C1=O", "10.3 µM"),
    ("COc1cc2c(c(OC)c1OC)C(=O)c1c-2n(CCCN)c(=O)c2cc([N+](=O)[O-])ccc12", "1.41 µM"),
    ("COc1ccc(OC)c(-c2cn3nc(-c4c[nH]c5ccc(Br)cc45)sc3n2)c1", "3.72 µM"),
    ("CNC1=C(Br)C(=O)C2=C(C1=O)C1C3=C(C(=O)C=CC3=O)C2c2ccccc21 (stereo not drawn)", "3.88 µM"),
    ("CN1CCN(c2ccc(NC3=C(Cl)C(=O)c4ncccc4C3=O)cc2C(F)(F)F)CC1", "5.44 µM"),
]

The measurements presented in this section are drawn from PubChem BioAssay (NCI).
